Tested on: prostate cancer cell line LNCaP
protocol: Growth inhibition, sulforhodamine-based protein determination, LNCaP
Assay type: cell-based
testSettings: Homo sapiens, Table 5, read-out: Growth Inhibition (IC50), LNCaP cells
pIC50: −log10 of the molar value.
metricName: pIC50

compound	pIC50
OC1CC(c2cc(OCc3ccccc3)c(OCc3ccccc3)c(OCc3ccccc3)c2)Oc2c1ccc1ccccc21 (centres unmarked) [SR 13191]	5.18
COc1cc(C2CC(=O)c3ccc4ccccc4c3O2)cc(OC)c1OC (centres unmarked) [SR 13177]	5.60
COc1cc(C2CC(O)c3ccc4ccccc4c3O2)cc(OC)c1OC (centres unmarked) [SR 13179]	6.68

[I] COc1cc(C2CC(O)c3c(ccc4ccccc34)O2)cc(OC)c1OC (centres unmarked) [SR 13187]
[II] COc1ccc(C2CC(=O)c3c(OC)cc(OC)cc3O2)cc1 (centres unmarked) [SR 13188]
Pick the one with the larger pIC50: I vs II Refer to your chosen entry by its label in the reply.
II
(II: 5.48, I: 4.75)

###

Test system: ovarian cancer cell line OVCAR-8
protocol: Growth inhibition, sulforhodamine-based protein determination, OVCAR-8
Type: cell-based
testSettings: Homo sapiens, OVCAR-8, 144 h; continuous exposure six days
Method: The novel compound SR 13179 was assayed for its ability to inhibit growth in several cancer cell lines. The cell lines studied included breast cancer cell line MCF-7 (ER+); prostate cancer cell lines LNCaP, PC3, and DU145; lung cancer cell line A427; ovarian cancer cell lines IGROV1, OVCAR-3, OVCAR-4, OVCAR-5, OVCAR-8, and SK-OV-3; and colon cancer cell lines COLO 205, HCC-2998, HCT-116, HCT-15, HT29, KM12, AND SW-620. […]
metricName: pIC50
// scale note: pIC50 = -log10(conc_M); give the bare number

Could you tell me which pIC50 is on file for COc1cc(C2CC(O)c3ccc4ccccc4c3O2)cc(OC)c1OC (stereo not shown) [SR 13179] ?
6.44

###

Test system: colon cancer cell line HT29
protocol: Growth inhibition, sulforhodamine-based protein determination, HT29
Assay type: cell-based
testSettings: Homo sapiens, HT-29, 144 h; continuous exposure six days
metricName: IC50 (nM)
Value expressed in nM; do not type the unit.

Fill in: IC50 of COc1cc(C2CC(O)c3ccc4ccccc4c3O2)cc(OC)c1OC (stereo not shown) is ___
430

###

Tested on: prostate cancer cell line DU145
protocol: Growth inhibition, sulforhodamine-based protein determination, DU145
Format: cell-based
testSettings: Homo sapiens, DU-145, 144 h; continuous exposure six days
metricName: pIC50
// returns pIC50 (minus log10 of molar concentration), number only

Recorded pIC50 for COc1cc(C2CC(O)c3ccc4ccccc4c3O2)cc(OC)c1OC (stereo not shown) , please?
6.20

###

Test system: human umbilical vein endothelial cells (HUVECs)
protocol: Growth inhibition of HUVECs, MTT assay
Assay type: cell-based
testSettings: HUVEC, read-out: concentration to inhibit growth by 50%, HUVECs
metricName: pIC50
Notebook: values listed as pIC50 are -log10 of the concentration (mol/L).

Please state recorded pIC50 (tested on human umbilical vein endothelial cells (HUVECs)) of COc1cc(C2CC(O)c3ccc4ccccc4c3O2)cc(OC)c1OC (stereo not shown) [SR 13179]
6.43

###

System: colon cancer cell line HCC-2998
protocol: Growth inhibition, sulforhodamine-based protein determination, HCC-2998
Assay type: cell-based
testSettings: Homo sapiens, HCC 2998, 144 h; continuous exposure six days
metricName: IC50 (nM)
Entry rule: numbers only, all in nM.

Query the reported IC50 for colon cancer cell line HCC-2998; item: COc1cc(C2CC(O)c3ccc4ccccc4c3O2)cc(OC)c1OC (stereo not shown)
278
